# study.target: T1, CRF2R
# T1 sequence (Q13324 whole entry, species assumed, looked up): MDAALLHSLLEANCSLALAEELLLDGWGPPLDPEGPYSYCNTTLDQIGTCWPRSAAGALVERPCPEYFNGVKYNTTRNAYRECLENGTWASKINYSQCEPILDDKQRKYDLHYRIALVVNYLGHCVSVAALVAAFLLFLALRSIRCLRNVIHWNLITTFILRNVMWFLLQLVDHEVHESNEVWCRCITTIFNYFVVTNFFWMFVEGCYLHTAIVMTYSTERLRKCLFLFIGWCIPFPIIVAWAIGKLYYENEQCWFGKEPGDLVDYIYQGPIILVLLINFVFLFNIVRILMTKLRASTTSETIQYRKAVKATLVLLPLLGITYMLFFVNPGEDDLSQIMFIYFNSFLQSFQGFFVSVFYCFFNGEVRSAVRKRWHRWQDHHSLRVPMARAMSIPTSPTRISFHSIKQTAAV
# experiment: cell-based or functional assay
Ends that are not written are not given here.
CRF2R Emax of 80% or higher: Satisfied. Under 80%: Not satisfied.

Data request: Given ZGPPISIDLPFQLLRKMIEIEKQEKEKQQAAANRLLLDTV (C-terminal amide) [SEQ ID NO 15] , state whether its CRF2R Emax is at least 80%.
Data returned: Satisfied

Data request: Confirm if CRF2R Emax reported for the binder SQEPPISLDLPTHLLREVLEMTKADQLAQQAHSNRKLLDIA-NH2 [SEQ ID NO 99] is 80% or above.
Data returned: Not satisfied

Data request: Is it the case that ZGPPISIDLPFELLRKMIEIEKQEKEKQQAANNRLLLDTI (C-terminal amide) [SEQ ID NO 67] has CRF2R Emax reaching or exceeding 80%?
Data returned: Not satisfied

Data request: Could you verify whether the entry IVLSLDVPIGLLQILLEQRARAAREQATTNARILARV-NH2 [SEQ ID NO 137] shows CRF2R Emax of no less than 80%?
Data returned: Satisfied

Data request: // inclusive: CRF2R Emax at least 80%? input: ZGPPISIDLPITLLRKMIEIEKQEKEKQQAANNRLLLDTI (C-terminal amide) [SEQ ID NO 24]
Data returned: Satisfied

Data request: Is reported CRF2R Emax greater than or equal to 80% here: IVLSLDVPIGLLQILLEQAAAAREQATTNARILARV-NH2 [SEQ ID NO 134]
Data returned: Not satisfied

Data request: Please check the record ZGPPISIDLPFQLLRKMIEIEKQEKEKQQATTNARLLATV (C-terminal amide) [SEQ ID NO 21] and state if its CRF2R Emax is at or above 80%.
Data returned: Satisfied

Data request: Identify whether the reported CRF2R Emax of the following binder is 80% or greater: ZGPPISIDLPFYLLRKMIEIEKQEKEKQQATTNARILARV (C-terminal amide) [SEQ ID NO 147]
Data returned: Satisfied

Data request: Is the recorded value of CRF2R Emax equal to or greater than 80% for this binder? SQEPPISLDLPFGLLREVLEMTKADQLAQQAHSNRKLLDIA-NH2 [SEQ ID NO 103]
Data returned: Not satisfied

Data request: Kindly determine if CRF2R Emax recorded for IVLSLDVPIGLLQILLEQEKQEKEKQQATTNARILARV-NH2 [SEQ ID NO 167] is above or exactly 80%.
Data returned: Satisfied
